- Tested on: Rattus norvegicus
- assay-notes: Percentage decrease in systolic blood pressure after 4 hr at 30 mg/kg administered perorally in rats
- Format: functional, Artery
- condition-description: route oral
Entries and their Decrease in Systolic blood pressure values follow.
endpoint-label: Decrease in Systolic blood pressure (%)

> print(dat)
                                   molecule                       endpoint.label  measure.unit  recorded.measurement
1  CCCCCC(C)C(C)c1cc(O)c2c(c1)OC(C)(C)C1=C2CN(C(=O)CN2CCOCC2)CC1 (configuration not stated)  Decrease in Systolic blood pressure             %                    18
2  C#CCN1CCC2=C(C1)c1c(O)cc(C(C)CCCc3ccc(F)cc3)cc1OC2(C)C (configuration not stated)  Decrease in Systolic blood pressure             %                    23
3  CCCCCC(C)C(C)c1cc(O)c2c(c1)OC(C)(C)C1=C2CN(C(=O)CN)CC1 (configuration not stated)  Decrease in Systolic blood pressure             %                    10
4  CCCCCC(C)C(C)c1cc(O)c2c(c1)OC(C)(C)C1CCN(C(=O)CN3CCOCC3)C=C21 (configuration not stated)  Decrease in Systolic blood pressure             %                    -5
5  CC(CCCc1ccc(F)cc1)c1cc(O)c2c(c1)OC(C)(C)C1=C2CN(C(=O)CCCO)CC1 (configuration not stated)  Decrease in Systolic blood pressure             %                    26
6  CCCCCC(C)C(C)c1cc(O)c2c(c1)OC(C)(C)C1=C2CN(C(=O)CO)CC1 (configuration not stated)  Decrease in Systolic blood pressure             %                    26
7  CCCCCC(C)C(C)c1cc(O)c2c(c1)OC(C)(C)C1CCN(C(=O)CO)C=C21 (configuration not stated)  Decrease in Systolic blood pressure             %                    -1

====

- System: Rattus norvegicus
- assay-notes: Percentage decrease in systolic blood pressure after 24 hr at 30 mg/kg administered perorally in rats
- Format: functional, Artery
- condition-description: route oral
Mark no (0) for Decrease in Systolic blood pressure values under 10%, and yes (1) for everything at or above.

> print(dat)
                                   compound  category
1  CCCCCC(C)C(C)c1cc(O)c2c(c1)OC(C)(C)C1=C2CN(C(=O)CN)CC1 (stereo unspecified)    no (0)
2  CCCCCC(C)C(C)c1cc(O)c2c(c1)OC(C)(C)C1CCN(C(=O)CO)C=C21 (stereo unspecified)    no (0)
3  CC(CCCc1ccc(F)cc1)c1cc(O)c2c(c1)OC(C)(C)C1=C2CN(C(=O)CCCO)CC1 (stereo unspecified)   yes (1)
4  C#CCN1CCC2=C(C1)c1c(O)cc(C(C)CCCc3ccc(F)cc3)cc1OC2(C)C (stereo unspecified)   yes (1)
5  CCCCCC(C)C(C)c1cc(O)c2c(c1)OC(C)(C)C1CCN(C(=O)CN3CCOCC3)C=C21 (stereo unspecified)    no (0)

====

List of Decrease in Systolic blood pressure values.
- Test system: Rattus norvegicus
- assay-notes: Percentage decrease in systolic blood pressure after 4 hr at 10 mg/kg administered perorally in rats
- Assay type: functional, Artery
- condition-description: route oral
endpoint-label: Decrease in Systolic blood pressure (%)

> print(dat)
                                   compound  measure.unit  recorded.measurement
1  CCCCCC(C)C(C)c1cc(O)c2c(c1)OC(C)(C)C1=C2CN(C(=O)CN2CCOCC2)CC1 (centres undefined)             %                     8
2  C#CCN1CCC2=C(C1)c1c(O)cc(C(C)CCCc3ccc(F)cc3)cc1OC2(C)C (centres undefined)             %                    30
3  C#CCN1CCC2=C(C1)c1c(O)cc(C(C)C(C)CCCCC)cc1OC2(C)C (centres undefined)             %                    23
4  CC(CCCc1ccc(F)cc1)c1cc(O)c2c(c1)OC(C)(C)C1=C2CN(C(=O)CCCO)CC1 (centres undefined)             %                    28
